# TARGET ENTITY: T1, Tumor-associated calcium signal transducer 2 (UniProt P09758 27-323, limits assumed)
# T1 sequence (looked up): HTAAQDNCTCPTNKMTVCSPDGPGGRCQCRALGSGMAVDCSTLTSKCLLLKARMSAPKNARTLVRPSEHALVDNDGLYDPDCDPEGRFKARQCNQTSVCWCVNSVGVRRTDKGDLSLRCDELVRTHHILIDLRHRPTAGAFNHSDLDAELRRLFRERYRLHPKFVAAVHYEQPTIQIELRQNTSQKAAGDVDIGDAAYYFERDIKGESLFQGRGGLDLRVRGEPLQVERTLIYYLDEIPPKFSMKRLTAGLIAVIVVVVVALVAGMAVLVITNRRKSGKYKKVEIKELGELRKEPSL
# EXPERIMENTAL PROTOCOL: cell-based or functional assay
Recorded IC50 (nM), in vitro killing activity, NCI-N87 Cell by entry
MEASURE: IC50 (nM), in vitro killing activity, NCI-N87 Cell

BINDER	OBSERVED MEASUREMENT
FDA018-GGFG-Dxd (antibody, human IgG1, kappa, V domains shown, linker-drug GGFG-Dxd coupled to cysteine sulfhydryl groups after reduction of the interchain disulfide bonds; DAR 4.03 for the whole antibody; sites not stated) VH: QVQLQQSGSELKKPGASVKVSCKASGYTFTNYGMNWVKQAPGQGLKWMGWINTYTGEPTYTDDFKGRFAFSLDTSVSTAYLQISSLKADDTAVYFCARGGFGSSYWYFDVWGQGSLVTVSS VL: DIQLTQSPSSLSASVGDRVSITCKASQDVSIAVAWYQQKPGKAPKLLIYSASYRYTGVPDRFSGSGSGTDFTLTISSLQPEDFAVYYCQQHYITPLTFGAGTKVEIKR	1.1
FDA018-LE15 (antibody, human IgG1, kappa, V domains shown, linker-drug LE15 coupled to cysteine sulfhydryl groups after reduction of the interchain disulfide bonds; DAR 4.12 for the whole antibody; sites not stated) VH: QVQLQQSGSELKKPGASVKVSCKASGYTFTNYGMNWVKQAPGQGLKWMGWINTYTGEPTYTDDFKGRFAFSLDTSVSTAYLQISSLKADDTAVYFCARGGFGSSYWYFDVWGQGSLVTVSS VL: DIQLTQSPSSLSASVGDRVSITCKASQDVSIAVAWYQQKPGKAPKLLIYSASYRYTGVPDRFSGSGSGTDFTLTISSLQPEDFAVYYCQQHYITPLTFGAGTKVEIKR	0.98
FDA018-LE13 (antibody, human IgG1, kappa, V domains shown, linker-drug LE13 coupled to cysteine sulfhydryl groups after reduction of the interchain disulfide bonds; DAR 4.10 for the whole antibody; sites not stated) VH: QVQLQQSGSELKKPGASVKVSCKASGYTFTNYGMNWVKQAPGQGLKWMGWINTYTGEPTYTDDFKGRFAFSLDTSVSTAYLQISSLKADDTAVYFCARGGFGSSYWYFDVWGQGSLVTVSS VL: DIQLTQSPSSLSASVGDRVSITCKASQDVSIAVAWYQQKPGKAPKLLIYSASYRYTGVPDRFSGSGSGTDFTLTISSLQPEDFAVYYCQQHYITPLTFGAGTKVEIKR	2.34
FDA018-LE17 (antibody, human IgG1, kappa, V domains shown, linker-drug LE17 coupled to cysteine sulfhydryl groups after reduction of the interchain disulfide bonds; DAR 3.98 for the whole antibody; sites not stated) VH: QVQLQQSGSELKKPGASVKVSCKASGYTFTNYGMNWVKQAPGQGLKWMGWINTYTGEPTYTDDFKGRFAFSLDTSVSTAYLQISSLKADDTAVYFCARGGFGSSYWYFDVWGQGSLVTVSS VL: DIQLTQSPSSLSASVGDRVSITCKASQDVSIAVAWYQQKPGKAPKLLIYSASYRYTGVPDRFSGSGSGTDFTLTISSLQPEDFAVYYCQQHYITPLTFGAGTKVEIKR	1.12
FDA018-LE12 (antibody, human IgG1, kappa, V domains shown, linker-drug LE12 (Dxd payload) coupled to cysteine sulfhydryl groups after reduction of the interchain disulfide bonds; DAR 3.90 for the whole antibody; sites not stated) VH: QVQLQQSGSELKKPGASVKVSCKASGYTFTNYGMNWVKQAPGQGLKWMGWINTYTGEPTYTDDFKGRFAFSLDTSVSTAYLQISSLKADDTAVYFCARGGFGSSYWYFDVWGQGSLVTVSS VL: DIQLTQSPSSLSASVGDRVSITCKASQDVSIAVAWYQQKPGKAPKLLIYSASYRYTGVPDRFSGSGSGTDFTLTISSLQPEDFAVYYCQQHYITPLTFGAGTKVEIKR	1.12
FDA018-LE16 (antibody, human IgG1, kappa, V domains shown, linker-drug LE16 coupled to cysteine sulfhydryl groups after reduction of the interchain disulfide bonds; DAR 4.03 for the whole antibody; sites not stated) VH: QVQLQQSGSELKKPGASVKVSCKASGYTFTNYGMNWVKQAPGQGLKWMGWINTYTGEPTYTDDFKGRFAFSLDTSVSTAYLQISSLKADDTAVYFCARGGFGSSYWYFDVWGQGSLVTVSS VL: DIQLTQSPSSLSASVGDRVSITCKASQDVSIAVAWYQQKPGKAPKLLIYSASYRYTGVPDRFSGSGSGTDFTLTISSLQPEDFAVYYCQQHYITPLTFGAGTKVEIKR	1.35
FDA018-LE20 (antibody, human IgG1, kappa, V domains shown, linker-drug LE20 coupled to cysteine sulfhydryl groups after reduction of the interchain disulfide bonds; DAR 3.88 for the whole antibody; sites not stated) VH: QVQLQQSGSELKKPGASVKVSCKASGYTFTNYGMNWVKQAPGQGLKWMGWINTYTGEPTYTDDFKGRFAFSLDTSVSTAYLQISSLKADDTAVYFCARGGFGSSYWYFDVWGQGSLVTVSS VL: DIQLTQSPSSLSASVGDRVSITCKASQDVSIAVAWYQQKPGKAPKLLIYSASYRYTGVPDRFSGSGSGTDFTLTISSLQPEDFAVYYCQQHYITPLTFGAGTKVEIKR	1.15
